# ASSAY PROCEDURE: Moisture balance / vapor sorption (hygroscopicity)
# Assay type: physicochemical
# RUN CONDITIONS: based on XRPD results
Where a name gives a salt, the structure may show the parent alone.
READOUT TYPE: phase post vapor sorption experiment

# annotated cases, reported phase post vapor sorption experiment shown
| COMPOUND | READOUT TYPE | RESULT |
| --- | --- | --- |
| Cc1ncccc1Oc1cc(Sc2ccccn2)cnc1Nc1nc([C@H](O)CO)ns1 [fumarate co-crystal Form A] | phase post vapor sorption experiment | remained unchanged |
| Cc1ncccc1Oc1cc(Sc2ccccn2)cnc1Nc1nc([C@H](O)CO)ns1 [Form A] | phase post vapor sorption experiment | remained unchanged |
| Cc1ncccc1Oc1cc(Sc2ccccn2)cnc1Nc1nc([C@H](O)CO)ns1 [Amorphous AMG151] | phase post vapor sorption experiment | remained unchanged |
| Cc1ncccc1Oc1cc(Sc2ccccn2)cnc1Nc1nc([C@H](O)CO)ns1 [MSA salt Form C] | phase post vapor sorption experiment | remained unchanged |
| Cc1ncccc1Oc1cc(Sc2ccccn2)cnc1Nc1nc([C@H](O)CO)ns1 [phosphate salt Form D] | phase post vapor sorption experiment | remained unchanged |
| Cc1ncccc1Oc1cc(Sc2ccccn2)cnc1Nc1nc([C@H](O)CO)ns1 [Form F] | phase post vapor sorption experiment | remained unchanged |
| Cc1ncccc1Oc1cc(Sc2ccccn2)cnc1Nc1nc([C@H](O)CO)ns1 [phosphate salt Form A] | phase post vapor sorption experiment | remained unchanged |

Then this compound:
Please look up its phase post vapor sorption experiment: Cc1ncccc1Oc1cc(Sc2ccccn2)cnc1Nc1nc([C@H](O)CO)ns1 [Hydrate Form C]
remained unchanged

====

Listing of recorded weight change by entry.
# ASSAY PROCEDURE: Moisture balance / vapor sorption (hygroscopicity)
# Format: physicochemical
# RUN CONDITIONS: vapor sorption, as high as 95% relative humidity
Structures can show the parent of a compound that is named as a salt.
// units = %; emit number, no label

# annotated cases, reported weight change shown
| MOLECULE | READOUT NUMBER |
| --- | --- |
| Cc1ncccc1Oc1cc(Sc2ccccn2)cnc1Nc1nc([C@H](O)CO)ns1 [HCl salt Form A] | 9 |
| Cc1ncccc1Oc1cc(Sc2ccccn2)cnc1Nc1nc([C@H](O)CO)ns1 [MSA salt Form B] | 16.5 |
| Cc1ncccc1Oc1cc(Sc2ccccn2)cnc1Nc1nc([C@H](O)CO)ns1 [MSA salt Form C] | 18 |

Please look up its weight change: Cc1ncccc1Oc1cc(Sc2ccccn2)cnc1Nc1nc([C@H](O)CO)ns1 [fumarate co-crystal Form A]
0.075

Please look up its weight change: Cc1ncccc1Oc1cc(Sc2ccccn2)cnc1Nc1nc([C@H](O)CO)ns1 [Hydrate Form C]
0.25

Please look up its weight change: Cc1ncccc1Oc1cc(Sc2ccccn2)cnc1Nc1nc([C@H](O)CO)ns1 [HCl salt Form B]
20

Please look up its weight change: Cc1ncccc1Oc1cc(Sc2ccccn2)cnc1Nc1nc([C@H](O)CO)ns1 [phosphate salt Form A]
0.8

Please look up its weight change: Cc1ncccc1Oc1cc(Sc2ccccn2)cnc1Nc1nc([C@H](O)CO)ns1 [phosphate salt Form B]
3.5

====

# ASSAY PROCEDURE: Moisture balance / vapor sorption (hygroscopicity)
# Type: physicochemical
# RUN CONDITIONS: vapor sorption, 5% to 95% relative humidity
Where a name gives a salt, the structure may show the parent alone.

| MOLECULE | hygroscopicity |
| --- | --- |
| Cc1ncccc1Oc1cc(Sc2ccccn2)cnc1Nc1nc([C@H](O)CO)ns1 [MSA salt Form C] | hygroscopic |
| Cc1ncccc1Oc1cc(Sc2ccccn2)cnc1Nc1nc([C@H](O)CO)ns1 [HCl salt Form B] | hygroscopic |
